// provenance: patent US8796463B2

assay.notes: log P by HPLC on reversed phase columns (EEC directive 79/831 Annex V.A8)
Assay type: physicochemical
measurement.context: pH 2.7, 0.1% formic acid in water / acetonitrile gradient
Entries and their measured logp follow.
Form rule: numeric answer, no unit written next to it.

Below, 3 molecules whose answers are already recorded.
>>> data_value("Cn1nnnc1C(=NOCc1csc(NC(=O)C2COc3ccccc32)n1)c1ccccc1 (stereo not drawn) [Example 49]")
3.19
>>> data_value("Cn1nnnc1C(=NOCc1csc(NC(=O)C2Cc3ccccc3O2)n1)c1ccccc1 (stereo not drawn) [Example 42]")
3.39
>>> data_value("Cc1nnnn1C(=NOCc1cccc(NC(=O)c2cc(=O)c3ccccc3o2)n1)c1ccccc1 [Example 43]")
3.33

Enquiry: Can you look up the measured logp of Cn1nnnc1C(=NOCc1cccc(NC(=O)C2COc3ccccc32)n1)c1ccccc1 (stereo not drawn) [Example 61] for me?
Return: 3.37

Enquiry: Form field: reported logp of Cc1nnnn1C(=NOCc1csc(NC(=O)C2CC(=O)c3cc(F)ccc3O2)n1)c1ccccc1 (stereo not drawn) [Example 37]
Return: 3.33

Enquiry: What does the record list as logp for Cc1nnnn1C(=NOCc1cccc(NC(=O)C2CCc3cc(I)ccc3O2)n1)c1ccccc1 (stereo not drawn) [Example 21] ?
Return: 4.81

Enquiry: Endpoint output: logp of Cn1nnnc1C(=NOCc1csc(NC(=O)c2cc(=O)c3ccccc3o2)n1)c1ccccc1 [Example 47] . Value?
Return: 3.17

Enquiry: What logp value was documented for this molecule, COc1ccc2c(c1)OC(C(=O)Nc1nc(CON=C(c3ccccc3)c3nnnn3C)cs1)CC2 (stereo not drawn) [Example 40] ?
Return: 3.78

Enquiry: Tell me the measured logp of Cc1nnnn1C(=NOCc1csc(NC(=O)C2CCc3cc(I)ccc3O2)n1)c1ccccc1 (stereo not drawn) [Example 38] , please.
Return: 4.49

---

The entries below are paired with their reported logp.
assay.notes: log P by HPLC on reversed phase columns (EEC directive 79/831 Annex V.A8)
Assay type: physicochemical
measurement.context: pH 2.7, 0.1% formic acid in water / acetonitrile gradient
Write the number on its own, no unit after it.

Known logp results, listed for orientation:
>>> data_value("COc1cccc2c1OC(C(=O)Nc1cccc(CON=C(c3ccccc3)n3nnnc3C)n1)CC2 (stereo not shown) [Example 22]")
3.99
>>> data_value("Cc1nnnn1C(=NOCc1csc(NC(=O)C2COc3ccc(C(C)(C)C)cc3O2)n1)c1ccccc1 (stereo not shown) [Example 33]")
4.67
>>> data_value("Cc1nnnn1C(=NOCc1cccc(NC(=O)C2COc3ccc(C(C)(C)C)cc3O2)n1)c1ccccc1 (stereo not shown) [Example 25]")
5.03
>>> data_value("Cc1nnnn1C(=NOCc1csc(NC(=O)C2CCc3cc(F)ccc3O2)n1)c1ccccc1 (stereo not shown) [Example 31]")
3.87
>>> data_value("Cc1ccc2c(c1)OC(C(=O)Nc1cccc(CON=C(c3ccccc3)n3nnnc3C)n1)CO2 (stereo not shown) [Example 26]")
4.11

Enquiry: State the recorded logp for this entry: Cc1ccc2c(c1)OC(C(=O)Nc1nc(CON=C(c3ccccc3)c3nnnn3C)cs1)CO2 (stereo not shown) [Example 12]
Return: 3.78

Enquiry: Please report the recorded logp for Cc1nnnn1C(=NOCc1cccc(NC(=O)C2Cc3ccccc3O2)n1)c1ccccc1 (stereo not shown) [Example 56] .
Return: 3.71

Enquiry: Which logp value belongs to Cc1nnnn1C(=NOCc1cccc(NC(=O)C2COc3ccccc32)n1)c1ccccc1 (stereo not shown) [Example 58] ?
Return: 3.39

Enquiry: Consider the compound shown here: Cn1nnnc1C(=NOCc1cccc(NC(=O)C2Oc3ccccc3O2)n1)c1ccccc1 [Example 60] What is its recorded logp?
Return: 3.44

Enquiry: logp lookup needed for Cc1cccc2c1OC(C(=O)Nc1nc(CON=C(c3ccccc3)c3nnnn3C)cs1)CO2 (stereo not shown) [Example 13] , thanks.
Return: 3.83

Enquiry: logp for Cc1nnnn1C(=NOCc1csc(NC(=O)C2Cc3ccccc3O2)n1)c1ccccc1 (stereo not shown) [Example 45] ?
Return: 3.44

Enquiry: Look up logp for this compound: Cn1nnnc1C(=NOCc1csc(NC(=O)C2CC(=O)c3cc(F)ccc3O2)n1)c1ccccc1 (stereo not shown) [Example 16]
Return: 3.29

Enquiry: GET /values?readout=logp&item= Cn1nnnc1C(=NOCc1cccc(NC(=O)C2COc3ccc(C(C)(C)C)cc3O2)n1)c1ccccc1 (stereo not shown) [Example 6]
Return: 4.92

Enquiry: If you can, please state the reported logp value of Cn1nnnc1C(=NOCc1cccc(NC(=O)C2COc3ccccc3O2)n1)c1ccccc1 (stereo not shown) [Example 9] .
Return: 3.69

Enquiry: Requested read-out: logp. Entry: COc1cccc2c1OC(C(=O)Nc1cccc(CON=C(c3ccccc3)c3nnnn3C)n1)CC2 (stereo not shown) [Example 3]
Return: 3.92

Enquiry: Requested field: logp. Item: Cc1nnnn1C(=NOCc1cccc(NC(=O)C2CCc3ccccc3O2)n1)c1ccccc1 (stereo not shown) [Example 24]
Return: 4.08
